Source listed as patent US20240301071A1.

# kon per record follows
Target: T1, histidine-tagged human SIRPA v1 (Novoprotein) (human, UniProt P78324 31-370, limits assumed)
T1 construct: bought, soluble; also called huSIRPA; soluble huSIRPA; not shown: histidine tag
T1 sequence (P78324 31-370 limits assumed): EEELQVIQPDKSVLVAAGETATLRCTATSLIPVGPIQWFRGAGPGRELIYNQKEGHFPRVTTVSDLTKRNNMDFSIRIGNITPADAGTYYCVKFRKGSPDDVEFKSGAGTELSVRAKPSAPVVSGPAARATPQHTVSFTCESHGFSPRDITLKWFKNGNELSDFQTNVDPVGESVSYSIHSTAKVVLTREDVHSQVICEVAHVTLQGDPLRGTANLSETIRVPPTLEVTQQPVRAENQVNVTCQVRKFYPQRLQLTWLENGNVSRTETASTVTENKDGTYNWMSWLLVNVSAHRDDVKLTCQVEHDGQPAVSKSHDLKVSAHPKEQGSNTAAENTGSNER
Experiment: BLI (Octet), antibody on anti-human IgG Fc sensor, His-huSIRPA in solution, single-curve 1:1 fit
RECORDED_METRIC: kon (M⁻¹ s⁻¹)

3F9-21 (antibody, human IgG1, V domains shown, also called mAb 3F9-21) VH: EVQLLESGGGLVQPGGSLRLSCAASGFTFSSYAMSWVRQAPGKGLEWVATISEYGGSYTYYAESVKGRFTISRDNSKNTLYLQMNSLRAEDTAVYYCARPPYDDYYGGFQYWGQGTLVTVSS VL: DIQLTQSPSSLSASVGDRVTITCRASKSVSSGGYSYMHWYQQKPGKAPKLLIYLASNLESGVPSRFSGSGSGTDFTLTISSVQPEDFATYYCQHNRELPTTFGQGTKLEIK | 148000
3F9-10 (antibody, human IgG1, V domains shown, also called mAb 3F9-10) VH: EVQLLESGGGLVQPGGSLRLSCAASGFTFSSYAMSWVRQAPGKGLEWVATISEYGGSYTYYAESVKGRFTISRDNSKNTLYLQMNSLRAEDTAVYYCARPPYDDYYGGFRYWGQGTLVTVSS VL: DIQLTQSPSSLSASVGDRVTITCRASKSVSSGGYSYMHWYQQKPGKAPKLLIYLASNLESGVPSRFSGSGSGTDFTLTISSVQPEDFATYYCQHNRELPSTFGQGTKLEIK | 134000
3F9-18 (antibody, human IgG1, V domains shown, also called mAb 3F9-18) VH: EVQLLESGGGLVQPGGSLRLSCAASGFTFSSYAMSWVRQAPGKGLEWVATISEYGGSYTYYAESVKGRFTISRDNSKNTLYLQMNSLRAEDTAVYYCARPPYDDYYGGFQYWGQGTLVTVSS VL: DIQLTQSPSSLSASVGDRVTITCRASKSVSSGGYSYMHWYQQKPGKAPKLLIYLASNLESGVPSRFSGSGSGTDFTLTISSVQPEDFATYYCQHNRELPSTFGQGTKLEIK | 137000
